# TARGET OR SYSTEM: PDGF-receptor beta enzyme comprising the tyrosine kinase domain (Homo sapiens)
# Construct: from amino acid 545 to 1106 of GenBank Access NO: AAA36427
# ASSAY DETAILS: Inhibition of PDGF-receptor kinase activity (cell-free, PLC1 peptide, 33P Flashplate)
# Type: biochemical
# MEASUREMENT CONDITIONS: PDGF-R kinase activity; compound at 10 uM; read-out: Percent Inhibition @ 10 uM
OBSERVATION TYPE: inhibition at 10 µM (%)
Write down the numeric answer in % and omit the unit.

>>> numeric_readout("COc1ccc(Cl)cc1Nc1[nH]nc2c1Cc1cc(OC)c(OC)cc1-2")
36
>>> numeric_readout("CN(C)CCCOc1ccc2c(c1)Cc1c-2n[nH]c1Nc1cc(F)ccc1F")
32
>>> numeric_readout("CCCC(=O)OCn1nc2c(c1Nc1cccc(F)c1)Cc1cc(OC)c(OC)cc1-2")
92
>>> numeric_readout("COc1cc2c(cc1OC)-c1n[nH]c(Nc3ccc(S(=O)(=O)C4CCNCC4)cc3)c1C2")
71
>>> numeric_readout("CCOC(=O)c1ccc(Nc2[nH]nc3c2Cc2cc(OC)c(OC)cc2-3)cc1")
68

What value of measured inhibition at 10 µM is listed for COc1cc2c(cc1OC)-c1n[nH]c(Nc3ncc(Br)cc3C)c1C2 ?
18

What value of measured inhibition at 10 µM is listed for COc1cc2c(c3nc(C)oc13)Cc1c(NCc3ccccc3F)n[nH]c1-2 ?
99

What value of measured inhibition at 10 µM is listed for Cc1cccc(CNc2[nH]nc3c2Cc2ccc(C)cc2-3)c1 ?
76

What value of measured inhibition at 10 µM is listed for COc1cc2c(cc1OCC(O)CN1CCCC1)Cc1c-2n[nH]c1NCc1ccccc1F (stereo not drawn) ?
92

====

# TARGET OR SYSTEM: PDGF-receptor beta enzyme comprising the tyrosine kinase domain (Homo sapiens, UniProt P09619)
# Construct: from amino acid 545 to 1106 of GenBank Access NO: AAA36427
# Sequence (P09619 545-1106): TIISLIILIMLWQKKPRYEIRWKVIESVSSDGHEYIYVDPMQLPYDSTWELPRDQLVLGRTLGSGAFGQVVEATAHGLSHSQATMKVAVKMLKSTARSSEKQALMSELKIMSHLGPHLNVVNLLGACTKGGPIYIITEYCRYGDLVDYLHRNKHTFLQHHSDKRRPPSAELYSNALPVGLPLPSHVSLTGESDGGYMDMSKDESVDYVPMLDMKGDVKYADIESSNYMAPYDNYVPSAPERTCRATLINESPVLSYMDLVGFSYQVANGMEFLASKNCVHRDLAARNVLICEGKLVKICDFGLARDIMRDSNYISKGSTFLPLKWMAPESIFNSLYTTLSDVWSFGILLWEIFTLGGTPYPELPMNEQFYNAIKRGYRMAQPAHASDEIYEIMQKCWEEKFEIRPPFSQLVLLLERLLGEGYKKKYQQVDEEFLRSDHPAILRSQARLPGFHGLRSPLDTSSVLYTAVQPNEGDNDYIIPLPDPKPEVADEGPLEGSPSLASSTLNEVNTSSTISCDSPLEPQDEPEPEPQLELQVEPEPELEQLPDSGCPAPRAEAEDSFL
# ASSAY DETAILS: Inhibition of PDGF-receptor kinase activity (cell-free, PLC1 peptide, 33P Flashplate)
# Type: biochemical
# MEASUREMENT CONDITIONS: PDGF-R kinase activity; read-out: IC50
OBSERVATION TYPE: IC50 (nM)
Write down the numeric answer in nM and omit the unit.

>>> numeric_readout("COc1cc2c(cc1OC)-c1n[nH]c(Nc3ccc(F)c([N+](=O)[O-])c3)c1C2")
287

What value of measured IC50 is listed for CN(C)CCCOc1ccc2c(c1)Cc1c-2n[nH]c1Nc1cccc(F)c1 ?
58.5

What value of measured IC50 is listed for CN(C)c1ccc(Nc2[nH]nc3c2Cc2cc(Cl)ccc2-3)cc1 ?
1290

What value of measured IC50 is listed for COc1ccc(Nc2[nH]nc3c2Cc2cc(OC)c(OC)cc2-3)cc1OC ?
3070

What value of measured IC50 is listed for CCOc1cc2c(cc1OCC)C(C)c1c-2n[nH]c1Nc1cccc(OC)c1 (stereo not drawn) ?
25.3

What value of measured IC50 is listed for Fc1cccc(Nc2[nH]nc3c2Cc2ccc(F)cc2-3)c1 ?
8.69

What value of measured IC50 is listed for COc1cc2c(cc1OC)-c1n[nH]c(Nc3c(F)cc(F)cc3F)c1C2 ?
229

What value of measured IC50 is listed for COc1cc2c(cc1OC)-c1n[nH]c(NCc3cc(Cl)ccc3Cl)c1C2 ?
16.2

What value of measured IC50 is listed for CCOc1cccc(Nc2[nH]nc3c2Cc2c(OCCCO)cccc2-3)c1 ?
206

Sourced from patent US7196110B2
